- Test system: HCT-8
- Assay notes: Antiproliferative activity against human HCT-8 cells incubated for 36 hrs
- Format: functional, cell-based
- Condition context: HCT-8, 36 h
pIC50: −log10 of the molar value.
Parameter: pIC50

CCOC(=O)OC[C@H]1Cc2cc(OC)c(OC)c(OC)c2-c2ccc(SC)c(=O)cc21
6.75
C=C1Cc2cc(OC)c(OC)c(OC)c2-c2ccc(SC)c(=O)cc21
6.80
COc1cc2c(c(OC)c1OC)-c1ccc(SC)c(=O)cc1[C@@H](CO)C2
6.80

----------
- Species: Bos taurus
- Assay notes: Inhibition of bovine brain tubulin polymerization preincubated for 15 mins followed by GTP addition and measured for 30 mins by spectrophotometric method
Parameter: inhibition (%)

Below, 3 compounds whose answers are already recorded.
COc1c(CNC(=O)c2ccccc2)c2c(c(OC)c1OC)-c1ccc(OC)c(=O)cc1[C@@H](NC(C)=O)CC2
0
COc1c(COC(C)=O)c2c(c(OC)c1OC)-c1ccc(OC)c(=O)cc1[C@@H](NC(C)=O)CC2
100
COc1c(CN(C)C(C)=O)c2c(c(OC)c1OC)-c1ccc(OC)c(=O)cc1[C@@H](NC(C)=O)CC2
0

I: CCOC(=O)NCc1c2c(c(OC)c(OC)c1OC)-c1ccc(OC)c(=O)cc1[C@@H](NC(C)=O)CC2
II: COc1c(CO)c2c(c(OC)c1OC)-c1ccc(OC)c(=O)cc1[C@@H](NC(C)=O)CC2
[ask] Which shows the larger inhibition value: I or II ? Please reply using the label of the selected record.
[reply] II

Where these numbers come from: ChEMBL document CHEMBL4665675
